# measurement notes: Clearance in dog at 0.2 mg/kg, iv
# Type: ADME, organism-based, Canis lupus familiaris
# conditions used: in vivo
experimental endpoint: clearance (mL/min/kg)
Hi! Could you send only the number? It should be in mL/min/kg, unit omitted.

Task: Record request: clearance value, item COC[C@](CO)(OC[C@H]1O[C@@H](n2ncc3c(NC4CCCC4)nc(Cl)nc32)[C@H](O)[C@@H]1O)P(=O)(O)O
Output: 20.3

----------
Entries annotated with measured pIC50
# target of assay: 5'-nucleotidase (Homo sapiens, UniProt P21589)
# Sequence (P21589 whole entry): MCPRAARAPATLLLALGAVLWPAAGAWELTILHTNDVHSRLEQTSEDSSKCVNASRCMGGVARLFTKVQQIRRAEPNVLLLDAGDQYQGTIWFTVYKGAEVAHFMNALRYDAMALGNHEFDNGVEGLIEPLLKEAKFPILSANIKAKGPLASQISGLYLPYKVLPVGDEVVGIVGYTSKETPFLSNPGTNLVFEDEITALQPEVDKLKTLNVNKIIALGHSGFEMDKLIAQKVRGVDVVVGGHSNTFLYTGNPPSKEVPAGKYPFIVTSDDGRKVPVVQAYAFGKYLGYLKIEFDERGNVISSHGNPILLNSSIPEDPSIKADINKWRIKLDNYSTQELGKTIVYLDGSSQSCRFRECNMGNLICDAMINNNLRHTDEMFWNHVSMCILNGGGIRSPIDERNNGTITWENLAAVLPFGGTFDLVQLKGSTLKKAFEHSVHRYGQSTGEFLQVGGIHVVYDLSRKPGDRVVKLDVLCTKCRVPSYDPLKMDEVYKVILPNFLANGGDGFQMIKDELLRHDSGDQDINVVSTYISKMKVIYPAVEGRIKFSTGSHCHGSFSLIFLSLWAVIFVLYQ
# measurement notes: Inhibition of human C-terminal His6-tagged CD73 expressed in CHO cells preincubated for 15 mins followed by AMP addition and measured after 10 mins by malachite green reagent based assay
Just the number, please; pIC50 means minus log10 of the concentration in mol/L.

>>> observed_result("O=P(O)(O)CCOC[C@H]1O[C@@H](n2ncc3c(NCc4ccccc4Cl)nc(Cl)nc32)[C@H](O)[C@@H]1O")
7.06
>>> observed_result("CN(Cc1ccccc1)c1nc(Cl)nc2c1ncn2[C@@H]1O[C@H](COP(=O)(O)CP(=O)(O)O)[C@@H](O)[C@H]1O")
8.52
>>> observed_result("O=P(O)(O)CS(=O)(=O)C[C@H]1O[C@@H](n2ncc3c(NCc4ccccc4Cl)nc(Cl)nc32)[C@H](O)[C@@H]1O")
7.89
>>> observed_result("CC(CO)(OC[C@H]1O[C@@H](n2ncc3c(NC4CCCC4)nc(Cl)nc32)[C@H](O)[C@@H]1O)P(=O)(O)O (mixture of isomers)")
8.89

Task: Quick check: pIC50 of COP(=O)(O)CP(=O)(O)OC[C@H]1O[C@@H](n2ncc3c(NCc4ccccc4Cl)nc(Cl)nc32)[C@H](O)[C@@H]1O ?
Output: 6.88

Task: Next compound: O=P(O)(O)CSC[C@H]1O[C@@H](n2ncc3c(NCc4ccccc4Cl)nc(Cl)nc32)[C@H](O)[C@@H]1O
Output: 6.79

Task: Consider next the compound O=P(O)(O)COC[C@H]1O[C@@H](n2ncc3c(NCc4ccccc4Cl)nc(Cl)nc32)[C@H](O)[C@@H]1O in the same way.
Output: 7.54

----------
# target of assay: 5'-nucleotidase (Homo sapiens)
# measurement notes: Inhibition of human C-terminal His6-tagged CD73 expressed in CHO cells preincubated for 15 mins followed by AMP addition and measured after 10 mins by malachite green reagent based assay
experimental endpoint: pIC50
pIC50 here: minus log base 10 of the concentration, concentration in moles per litre.

>>> observed_result("COCC(OC[C@H]1O[C@@H](n2ncc3c(NC4CCCC4)nc(Cl)nc32)[C@H](O)[C@@H]1O)P(=O)(O)O (mixture of isomers)")
9.02
>>> observed_result("O=P(O)(O)C(OC[C@H]1O[C@@H](n2ncc3c(NC4CCCC4)nc(Cl)nc32)[C@H](O)[C@@H]1O)C(F)(F)F (mixture of isomers)")
6.41
>>> observed_result("C[C@](CO)(OC[C@H]1O[C@@H](n2ncc3c(NC4CCCC4)nc(Cl)nc32)[C@H](O)[C@@H]1O)P(=O)(O)O")
7.93

Task: Form entry - test system: 5'-nucleotidase (Homo sapiens); read-out: pIC50; molecule: COC[C@@](CO)(OC[C@H]1O[C@@H](n2ncc3c(NC4CCCC4)nc(Cl)nc32)[C@H](O)[C@@H]1O)P(=O)(O)O
Output: 9.00

Task: What would you report for CN(CC(C)(OC[C@H]1O[C@@H](n2ncc3c(NC4CCCC4)nc(Cl)nc32)[C@H](O)[C@@H]1O)P(=O)(O)O)S(C)(=O)=O (mixture of isomers) ?
Output: 7.01

Task: Check O=P(O)(O)C(OC[C@H]1O[C@@H](n2ncc3c(NC4CCCC4)nc(Cl)nc32)[C@H](O)[C@@H]1O)c1nnn[nH]1 (mixture of isomers) too.
Output: 7.55

Task: Moving on to the next molecule: O=P(O)(O)CS(=O)(=O)NC[C@H]1O[C@@H](n2ncc3c(NCc4ccccc4Cl)nc(Cl)nc32)[C@H](O)[C@@H]1O
Output: 6.48

Task: Lookup C[C@@](CO)(OC[C@H]1O[C@@H](n2ncc3c(NC4CCCC4)nc(Cl)nc32)[C@H](O)[C@@H]1O)P(=O)(O)O
Output: 9.29

Task: Next: CC(CCO)(OC[C@H]1O[C@@H](n2ncc3c(NC4CCCC4)nc(Cl)nc32)[C@H](O)[C@@H]1O)P(=O)(O)O (mixture of isomers)
Output: 7.51

Task: Would you mind doing CN(c1nc(Cl)nc2c1nnn2[C@@H]1O[C@H](COP(=O)(O)CP(=O)(O)O)[C@@H](O)[C@H]1O)[C@H]1CCc2ccccc21 as well?
Output: 8.89

Task: Would you kindly repeat that for CN(C[C@H]1O[C@@H](n2ncc3c(NCc4ccccc4Cl)nc(Cl)nc32)[C@H](O)[C@@H]1O)C(=O)CP(=O)(O)O ?
Output: 6.61

Task: Ok, now Nc1ncnc2c1ncn2[C@@H]1O[C@H](COP(=O)(O)CP(=O)(O)O)[C@@H](O)[C@H]1O
Output: 5.58

Task: Check O=C(CP(=O)(O)O)OC[C@H]1O[C@@H](n2ncc3c(NCc4ccccc4Cl)nc(Cl)nc32)[C@H](O)[C@@H]1O too.
Output: 6.29

----------
# target of assay: 5'-nucleotidase (Mus musculus, UniProt Q61503)
# Sequence (Q61503 whole entry): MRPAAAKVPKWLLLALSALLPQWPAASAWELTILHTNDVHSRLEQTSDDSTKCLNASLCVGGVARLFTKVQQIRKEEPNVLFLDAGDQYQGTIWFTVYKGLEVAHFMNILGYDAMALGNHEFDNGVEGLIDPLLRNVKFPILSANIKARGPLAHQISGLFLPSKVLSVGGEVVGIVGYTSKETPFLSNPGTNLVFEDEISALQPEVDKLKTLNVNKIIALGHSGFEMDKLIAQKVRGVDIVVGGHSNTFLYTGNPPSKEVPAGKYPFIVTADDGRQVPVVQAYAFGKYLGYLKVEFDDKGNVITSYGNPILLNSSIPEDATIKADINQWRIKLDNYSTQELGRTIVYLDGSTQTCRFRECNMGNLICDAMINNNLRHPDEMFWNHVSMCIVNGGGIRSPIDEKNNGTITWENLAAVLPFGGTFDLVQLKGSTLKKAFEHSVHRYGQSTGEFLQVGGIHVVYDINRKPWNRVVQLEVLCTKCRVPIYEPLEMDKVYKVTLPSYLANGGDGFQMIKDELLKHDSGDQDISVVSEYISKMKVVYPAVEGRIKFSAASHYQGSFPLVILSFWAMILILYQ
# measurement notes: Inhibition of CD73 in mouse EMT6 cells assessed as reduction in AMP-induced ADO expression preincubated for 15 mins followed by AMP addition and measured after 1 hr by LC-MS/MS analysis
experimental endpoint: EC50 (nM)
# value in nM; strip the unit string

>>> observed_result("COC[C@](CO)(OC[C@H]1O[C@@H](n2ncc3c(NC4CCCC4)nc(Cl)nc32)[C@H](O)[C@@H]1O)P(=O)(O)O")
14
>>> observed_result("C[C@H](Nc1cc(Cl)nc2c1cnn2[C@@H]1O[C@H](COP(=O)(O)CP(=O)(O)O)[C@@H](O)[C@H]1O)c1ccccc1F")
198
>>> observed_result("O=P(O)(O)C(CO)(CO)OC[C@H]1O[C@@H](n2ncc3c(NC4CCCC4)nc(Cl)nc32)[C@H](O)[C@@H]1O")
46

Proceeding to the next compound to report its EC50.
Task: Short answer please: EC50, 5'-nucleotidase (Mus musculus, UniProt Q61503), entry C[C@@](CO)(OC[C@H]1O[C@@H](n2ncc3c(NC4CCCC4)nc(Cl)nc32)[C@H](O)[C@@H]1O)P(=O)(O)O
Output: 41

----------
# target of assay: 5'-nucleotidase (Homo sapiens, UniProt P21589)
# measurement notes: Inhibition of human C-terminal His6-tagged CD73 expressed in CHO cells preincubated for 15 mins followed by AMP addition and measured after 10 mins by malachite green reagent based assay
experimental endpoint: pIC50
FYI, pIC50 means -log10 of a concentration in mol per litre.

The examples below pair each entry with its known result.
>>> observed_result("O=P(O)(O)C(CO)(CO)OC[C@H]1O[C@@H](n2ncc3c(NC4CCCC4)nc(Cl)nc32)[C@H](O)[C@@H]1O")
9.24
>>> observed_result("COP(=O)(O)CP(=O)(OC)OC[C@H]1O[C@@H](n2ncc3c(NCc4ccccc4Cl)nc(Cl)nc32)[C@H](O)[C@@H]1O (some centres undefined)")
5.54
>>> observed_result("COCC(CO)(OC[C@H]1O[C@@H](n2ncc3c(NC4CCCC4)nc(Cl)nc32)[C@H](O)[C@@H]1O)P(=O)(O)O (mixture of isomers)")
9.28

// below: pIC50 requested for another compound
Task: Give 5'-nucleotidase (Homo sapiens, UniProt P21589) pIC50 for COC[C@](CO)(OC[C@H]1O[C@@H](n2ncc3c(NC4CCCC4)nc(Cl)nc32)[C@H](O)[C@@H]1O)P(=O)(O)O
Output: 9.60

----------
# measurement notes: Cmax in rat at 50 mg/kg, po
# Assay type: ADME, organism-based
# Parameters: route oral, dose 50 mg/kg
# conditions used: in vivo
Reported Cmax values for the following compounds.
// return numeric value only (unit: nM, not printed)

>>> observed_result("O=P(O)(O)CS(=O)(=O)C[C@H]1O[C@@H](n2ncc3c(NCc4ccccc4Cl)nc(Cl)nc32)[C@H](O)[C@@H]1O")
60

We now examine a further compound.
Task: Suppose we examine the compound O=P(O)(O)COC[C@H]1O[C@@H](n2ncc3c(NCc4ccccc4Cl)nc(Cl)nc32)[C@H](O)[C@@H]1O ; what Cmax value has been reported?
Output: 110

----------
# measurement notes: Terminal half life in cynomolgus monkey at 0.2 mg/kg, iv
# Type: ADME, organism-based, Macaca fascicularis
# conditions used: in vivo, read-out: beta t1/2 (converted)
experimental endpoint: half-life (h)
Record the value in h, omitting the unit from your answer.

Task: What does the data say about its half-life? Entry: COC[C@](CO)(OC[C@H]1O[C@@H](n2ncc3c(NC4CCCC4)nc(Cl)nc32)[C@H](O)[C@@H]1O)P(=O)(O)O
Output: 4.6
